meta.source: patent US20150056222A1

Molecular target: T1, human prolactin receptor (PRLR) on cells (human, UniProt P16471 25-622)
T1 construct: T47D, T47D#11 and MCF7 carry the endogenous receptor; also called hPRLR; HEK293/hPRLR
T1 sequence: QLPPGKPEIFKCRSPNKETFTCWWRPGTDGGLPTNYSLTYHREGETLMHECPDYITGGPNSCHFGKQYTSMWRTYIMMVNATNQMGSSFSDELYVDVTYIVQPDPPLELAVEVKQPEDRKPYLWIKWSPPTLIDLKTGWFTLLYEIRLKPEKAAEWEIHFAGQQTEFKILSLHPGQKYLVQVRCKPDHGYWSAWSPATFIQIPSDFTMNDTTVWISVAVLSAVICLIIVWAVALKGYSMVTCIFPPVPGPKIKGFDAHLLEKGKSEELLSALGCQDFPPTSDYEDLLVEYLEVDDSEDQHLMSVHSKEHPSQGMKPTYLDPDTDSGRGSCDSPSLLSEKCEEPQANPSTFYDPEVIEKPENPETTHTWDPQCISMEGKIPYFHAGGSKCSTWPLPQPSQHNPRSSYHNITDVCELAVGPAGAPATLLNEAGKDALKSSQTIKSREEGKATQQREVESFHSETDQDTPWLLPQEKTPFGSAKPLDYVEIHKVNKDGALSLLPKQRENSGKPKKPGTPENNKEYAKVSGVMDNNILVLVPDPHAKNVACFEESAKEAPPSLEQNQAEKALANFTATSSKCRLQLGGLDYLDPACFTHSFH
Experiment: FACS, T47D cells (native PRLR); further: test concentration or dose not given here
Define the label as TRUE when FACS Cell Binding (Fold Above Background) is strictly less than 40 fold above background and as FALSE in all remaining cases.

H1H6960N (antibody, human IgG1, V domains shown, also called H2M6960N) VH: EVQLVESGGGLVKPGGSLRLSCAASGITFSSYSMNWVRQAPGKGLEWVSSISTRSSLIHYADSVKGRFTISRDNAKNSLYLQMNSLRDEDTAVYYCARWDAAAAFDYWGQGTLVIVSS VL: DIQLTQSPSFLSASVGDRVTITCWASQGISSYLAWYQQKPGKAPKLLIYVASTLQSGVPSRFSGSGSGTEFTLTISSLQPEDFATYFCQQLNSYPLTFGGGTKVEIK :: TRUE
H1H6790P (antibody, human IgG1, V domains shown, human IgG1 Fc (H1H)) VH: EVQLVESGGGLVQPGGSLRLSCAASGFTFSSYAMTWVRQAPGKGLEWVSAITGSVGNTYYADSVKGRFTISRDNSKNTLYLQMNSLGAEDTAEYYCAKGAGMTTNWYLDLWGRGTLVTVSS VL: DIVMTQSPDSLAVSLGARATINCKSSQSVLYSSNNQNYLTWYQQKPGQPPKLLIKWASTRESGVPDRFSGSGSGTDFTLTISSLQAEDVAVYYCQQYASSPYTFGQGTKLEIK :: TRUE
H1H6801P (antibody, human IgG1, V domains shown, human IgG1 Fc (H1H)) VH: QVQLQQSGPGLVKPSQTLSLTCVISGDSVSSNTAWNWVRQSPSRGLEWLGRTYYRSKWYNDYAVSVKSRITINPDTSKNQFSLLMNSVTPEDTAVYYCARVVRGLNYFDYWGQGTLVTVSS VL: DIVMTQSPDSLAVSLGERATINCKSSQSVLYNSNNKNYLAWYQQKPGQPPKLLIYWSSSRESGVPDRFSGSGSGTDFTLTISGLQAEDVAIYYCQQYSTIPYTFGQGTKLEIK :: FALSE
H1H6782P (antibody, human IgG1, V domains shown, human IgG1 Fc (H1H)) VH: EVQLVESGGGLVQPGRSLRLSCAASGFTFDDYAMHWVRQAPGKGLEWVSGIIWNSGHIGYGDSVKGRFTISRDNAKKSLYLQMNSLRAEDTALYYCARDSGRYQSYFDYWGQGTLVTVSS VL: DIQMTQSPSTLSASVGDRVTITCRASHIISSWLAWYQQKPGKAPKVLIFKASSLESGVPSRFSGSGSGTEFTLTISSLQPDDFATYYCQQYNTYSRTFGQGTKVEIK :: FALSE
